Reference source for all entries: PubChem BioAssay (NCI)

- Tested on: HT29 colon
- Test Method Notes: NCI tumour cell line growth inhibition, 48 h
Experimental Endpoint: GI50

[[record]]
compound = "O=C1CCC(N2C(=O)c3ccccc3C2=O)C(=O)N1 (stereo not given)"
result = "> 100 µM"

[[record]]
compound = "Cc1nnc2n1N=C(c1ccc(Cl)cc1Cl)/C(=C/c1ccc(-c3ccc([N+](=O)[O-])cc3Cl)o1)S2"
result = "49.9 µM"

[[record]]
compound = "Cc1cc(O)c(C2=NN(c3ccc(S(N)(=O)=O)cc3)C(c3ccc(Cl)cc3)C2)c(C)c1Cl (stereo not given)"
result = "3.3 µM"

[[record]]
compound = "CC(=O)[O-].[Mn+3].[O-]c1ccccc1C=NCCNCCN=Cc1ccccc1[O-]"
result = "> 100 µM"

[[record]]
compound = "Cc1nc2c(n1C)C(=O)c1ccccc1C2=O"
result = "37.2 µM"

[[record]]
compound = "C#Cc1nc2ccccc2c(=O)[nH]1"
result = "0.428 µM"

[[record]]
compound = "OCc1ccc(-c2cscc2-c2ccc(CO)o2)o1"
result = "7.03 µM"

[[record]]
compound = "O=C(NCCc1ccccn1)OCc1nc2nc(Cl)nc(N3CCOCC3)c2[nH]1"
result = "1.98 µM"

[[record]]
compound = "CCCCCC[C@H](C)Nc1nc2ccccc2c2occc12"
result = "8.15 µM"

[[record]]
compound = "O=P1(S)OC[C@H]2O[C@@H]3[C@H](F)[C@@H]2OP(O)(=S)OC[C@H]2O[C@H]([C@H](F)[C@@H]2O1)n1cnc2c(ncnc21)NC/C=C/CNc1ncnc2c1ncn23 (stereo not given in full)"
result = "43.7 µM"

[[record]]
compound = "C=C1CCC2(C#N)[C@H]3[C@H](CC[C@@H]2C)[C@@H](C)C[C@@H](CC(C)(C)NC(=O)CN2CCC2=O)[C@H]13 (stereo not given in full)"
result = "10.5 µM"

[[record]]
compound = "N.N.N.N.N.O=[N+]([O-])[O-].[Co+3].[O-][Cl+3]([O-])([O-])[O-]"
result = "> 100 µM"

[[record]]
compound = "CCN(c1cc(-c2ccc(CN3CCOCC3)cc2)cc(C(=O)NCc2c(C)cc(C)[nH]c2=O)c1C)C1CCOCC1"
result = "15.7 µM"

[[record]]
compound = "Cc1cc2c([nH]c3ccccc32)c(O)c1-c1c(C)cc2c([nH]c3ccccc32)c1O"
result = "6.04 µM"

[[record]]
compound = "Cc1nc(Nc2ccccn2)sc1C(=O)/C=C/c1ccc(Cl)cc1"
result = "0.47 µM"

[[record]]
compound = "COC(=O)COc1ccc(/C=C2/N=C(c3ccccc3)N(c3c(C)n(C)n(-c4ccccc4)c3=O)C2=O)cc1"
result = "18.3 µM"

[[record]]
compound = "COc1ccc2[nH]c(O)c(/C=c3/cc4c(c(-c5ccc(F)c(OC)c5)n3)=Nc3ccccc3-4)c2c1"
result = "2.03 µM"

[[record]]
compound = "Cn1cc(C2=C(c3cn(C)c4ccc(Cl)cc34)C(=O)NC2=O)c2ccccc21"
result = "1.23 µM"

[[record]]
compound = "c1ccc(-c2nc(N3CCOCC3)c3c4c(sc3n2)CCCCCC4)nc1"
result = "6.05 µM"

[[record]]
compound = "CSCCCNC(=O)c1ccc2c(c1)/C(=C/c1[nH]c(C)cc1C)C(=O)N2"
result = "4.95 µM"

